Method description: Thermal melt stability: onset time of crosslinking by oscillatory rheology at 160° C., SBS-rubber based trial formulation
Assay type: physicochemical
Assay context: SBS-rubber based plate formulation with 1 wt % carbamate derivative, crude reaction mixture added without purification
# Onset time t (Δη*/Δt ≥ 1 Pa)/min (OT) >= 30 min gives true, anything below gives false

[
  {
    "Compound": "O=C(NC1CCCCC1)OCC(OC(=O)NC1CCCCC1)C1OC(=O)C(O)=C1O (stereo not shown)",
    "Class label": "true"
  },
  {
    "Compound": "CC(C)(C)NC(=O)OCC(OC(=O)NC(C)(C)C)C1OC(=O)C(O)=C1O (stereo not shown)",
    "Class label": "true"
  },
  {
    "Compound": "C=Cc1ccc(C(C)(C)NC(=O)OCC(OC(=O)NC(C)(C)c2ccc(C=C)cc2)C2OC(=O)C(O)=C2O)cc1 (stereo not shown)",
    "Class label": "false"
  },
  {
    "Compound": "CCCCNC(=O)OCC(OC(=O)NCCCC)C1OC(=O)C(O)=C1O (stereo not shown)",
    "Class label": "true"
  }
]

Tell me whether Onset time t (Δη*/Δt ≥ 1 Pa)/min (OT) is at least 30 min here: O=C(Nc1cccc2ccccc12)OCC(OC(=O)Nc1cccc2ccccc12)C1OC(=O)C(O)=C1O (stereo not shown)
false

Tell me whether Onset time t (Δη*/Δt ≥ 1 Pa)/min (OT) is at least 30 min here: Cc1ccc(S(=O)(=O)NC(=O)OCC(OC(=O)NS(=O)(=O)c2ccc(C)cc2)C2OC(=O)C(O)=C2O)cc1 (stereo not shown)
false

Tell me whether Onset time t (Δη*/Δt ≥ 1 Pa)/min (OT) is at least 30 min here: O=C(Nc1ccccc1)OCC(OC(=O)Nc1ccccc1)C1OC(=O)C(O)=C1O (stereo not shown)
true

Tell me whether Onset time t (Δη*/Δt ≥ 1 Pa)/min (OT) is at least 30 min here: C=CC(=O)OCC(C)(COC(=O)C=C)NC(=O)OCC(OC(=O)NC(C)(COC(=O)C=C)COC(=O)C=C)C1OC(=O)C(O)=C1O (stereo not shown)
false

Tell me whether Onset time t (Δη*/Δt ≥ 1 Pa)/min (OT) is at least 30 min here: CCO[Si](CCCNC(=O)OCC(OC(=O)NCCC[Si](OCC)(OCC)OCC)C1OC(=O)C(O)=C1O)(OCC)OCC (stereo not shown)
false

Tell me whether Onset time t (Δη*/Δt ≥ 1 Pa)/min (OT) is at least 30 min here: C=C(C)C(=O)OCCNC(=O)OCC(OC(=O)NCCOC(=O)C(=C)C)C1OC(=O)C(O)=C1O (stereo not shown)
true

Tell me whether Onset time t (Δη*/Δt ≥ 1 Pa)/min (OT) is at least 30 min here: Cc1cccc(NC(=O)OCC(OC(=O)Nc2cccc(C)c2)C2OC(=O)C(O)=C2O)c1 (stereo not shown)
true

Tell me whether Onset time t (Δη*/Δt ≥ 1 Pa)/min (OT) is at least 30 min here: CC(C)c1ccc(NC(=O)OCC(OC(=O)Nc2ccc(C(C)C)cc2)C2OC(=O)C(O)=C2O)cc1 (stereo not shown)
true

Tell me whether Onset time t (Δη*/Δt ≥ 1 Pa)/min (OT) is at least 30 min here: C[Si](C)(C)NC(=O)OCC(OC(=O)N[Si](C)(C)C)C1OC(=O)C(O)=C1O (stereo not shown)
false

Tell me whether Onset time t (Δη*/Δt ≥ 1 Pa)/min (OT) is at least 30 min here: C=CCCCCCCCCCCNC(=O)OCC(OC(=O)NCCCCCCCCCCC=C)C1OC(=O)C(O)=C1O (stereo not shown)
true

Tell me whether Onset time t (Δη*/Δt ≥ 1 Pa)/min (OT) is at least 30 min here: O=C(NCCc1ccccc1)OCC(OC(=O)NCCc1ccccc1)C1OC(=O)C(O)=C1O (stereo not shown)
false

Tell me whether Onset time t (Δη*/Δt ≥ 1 Pa)/min (OT) is at least 30 min here: CCCCCCCCCCCCCCCCCCNC(=O)OCC(OC(=O)NCCCCCCCCCCCCCCCCCC)C1OC(=O)C(O)=C1O (stereo not shown)
false
